Molecular target: human platelets (Homo sapiens, UniProt P05106+P08514)
Sequence (P08514 32-1039): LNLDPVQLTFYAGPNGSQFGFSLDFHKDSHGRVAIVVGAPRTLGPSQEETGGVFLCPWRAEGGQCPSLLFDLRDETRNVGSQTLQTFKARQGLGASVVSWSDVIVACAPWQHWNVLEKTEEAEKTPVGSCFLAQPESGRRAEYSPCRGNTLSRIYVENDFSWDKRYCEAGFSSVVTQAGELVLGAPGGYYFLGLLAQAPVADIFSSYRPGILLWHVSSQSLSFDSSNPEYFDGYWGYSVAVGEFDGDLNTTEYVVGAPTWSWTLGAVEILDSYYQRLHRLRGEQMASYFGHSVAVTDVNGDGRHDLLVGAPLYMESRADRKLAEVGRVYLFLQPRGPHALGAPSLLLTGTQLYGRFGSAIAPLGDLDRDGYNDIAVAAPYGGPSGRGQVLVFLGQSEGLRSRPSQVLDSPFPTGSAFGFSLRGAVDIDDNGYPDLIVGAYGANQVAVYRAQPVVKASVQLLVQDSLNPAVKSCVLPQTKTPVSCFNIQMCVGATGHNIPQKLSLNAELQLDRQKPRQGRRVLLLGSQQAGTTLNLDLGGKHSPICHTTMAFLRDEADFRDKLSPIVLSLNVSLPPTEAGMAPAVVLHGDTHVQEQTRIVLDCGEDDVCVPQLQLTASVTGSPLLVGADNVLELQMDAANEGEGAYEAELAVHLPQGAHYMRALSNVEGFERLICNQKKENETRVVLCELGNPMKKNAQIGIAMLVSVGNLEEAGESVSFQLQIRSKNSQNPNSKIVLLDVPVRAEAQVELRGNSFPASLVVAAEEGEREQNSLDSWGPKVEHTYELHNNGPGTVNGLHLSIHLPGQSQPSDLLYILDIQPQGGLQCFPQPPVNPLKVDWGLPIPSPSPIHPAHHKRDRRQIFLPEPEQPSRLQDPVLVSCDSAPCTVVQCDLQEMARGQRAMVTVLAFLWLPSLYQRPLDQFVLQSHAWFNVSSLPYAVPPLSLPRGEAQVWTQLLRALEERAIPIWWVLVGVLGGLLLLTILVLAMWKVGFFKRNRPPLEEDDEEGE
Sequence (P05106 27-788): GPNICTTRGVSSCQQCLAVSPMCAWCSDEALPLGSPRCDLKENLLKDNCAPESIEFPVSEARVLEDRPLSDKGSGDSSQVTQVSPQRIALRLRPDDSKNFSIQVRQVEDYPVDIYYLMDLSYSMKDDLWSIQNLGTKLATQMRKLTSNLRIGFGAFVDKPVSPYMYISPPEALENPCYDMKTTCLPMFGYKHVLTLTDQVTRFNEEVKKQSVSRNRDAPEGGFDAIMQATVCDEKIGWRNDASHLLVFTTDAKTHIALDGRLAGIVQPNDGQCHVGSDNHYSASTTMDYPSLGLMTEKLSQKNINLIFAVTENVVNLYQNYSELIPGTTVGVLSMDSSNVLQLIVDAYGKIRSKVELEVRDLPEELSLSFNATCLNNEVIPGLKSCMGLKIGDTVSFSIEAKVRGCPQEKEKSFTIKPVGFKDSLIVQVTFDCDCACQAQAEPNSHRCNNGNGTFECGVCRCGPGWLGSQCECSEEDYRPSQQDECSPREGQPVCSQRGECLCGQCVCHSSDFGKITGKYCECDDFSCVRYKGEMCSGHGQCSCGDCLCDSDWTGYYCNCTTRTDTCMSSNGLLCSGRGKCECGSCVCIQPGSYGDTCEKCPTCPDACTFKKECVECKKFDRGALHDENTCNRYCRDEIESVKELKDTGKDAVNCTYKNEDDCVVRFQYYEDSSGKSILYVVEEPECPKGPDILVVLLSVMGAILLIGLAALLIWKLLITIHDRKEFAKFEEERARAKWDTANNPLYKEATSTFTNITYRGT
Assay: 125I-Fibrinogen binding to platelets
Details: 0.1 μM 125I-fibrinogen, thrombin or activator peptide stimulus
Procedure: Preparation of Human Platelets Human blood was collected by venipuncture in tubes containing one-tenth volume of acid-citrate-dextrose as an anticoagulant. […] Finally, the platelets were counted in an automated hematology analyzer. […] Binding of fibrinogen to human platelets was performed as described by Plow and Ginsberg (1981). […] Tips of the centrifuge tubes were amputated and bound ^125 I-fibrinogen was measured in a gamma counter (LKB/Pharmacia). […]
Give pIC50 for every item shown.
The read-out pIC50 is expressed as -log10 of concentration in moles per litre.

Value lookup for pIC50; key = C[C@H]1CN(CCCC(=O)O)[C@@H](CCCNC(=N)N)C(=O)NCC(=O)N[C@@H](CC(=O)O)C(=O)N[C@H](C(=O)NCc2ccccc2)CCC(=O)N1 [II]
5.92

Please look up its pIC50: C[C@H]1CN(C(=O)CCN)[C@@H](CCCNC(=N)N)C(=O)NCC(=O)N[C@@H](CC(=O)O)C(=O)N[C@H](C(=O)NCc2ccccc2)CCC(=O)N1 [III]
5.62

Can you share its pIC50? I mean this molecule: C[C@H]1CN[C@@H](CCCNC(=N)N)C(=O)NCC(=O)N[C@@H](CC(=O)O)C(=O)N[C@H](C(=O)NCc2ccccc2)CCC(=O)N1 [I]
5.62

Need pIC50 of C[C@H]1CN(CCCc2ccccc2)[C@@H](CCCNC(=N)N)C(=O)NCC(=O)N[C@@H](CC(=O)O)C(=O)N[C@H](C(=O)NCc2ccccc2)CCC(=O)N1 [IV] , thanks.
6.57

Origin of values: patent US6107275A
